Target: OR1 (Homo sapiens)
Sequence (O43613 whole entry): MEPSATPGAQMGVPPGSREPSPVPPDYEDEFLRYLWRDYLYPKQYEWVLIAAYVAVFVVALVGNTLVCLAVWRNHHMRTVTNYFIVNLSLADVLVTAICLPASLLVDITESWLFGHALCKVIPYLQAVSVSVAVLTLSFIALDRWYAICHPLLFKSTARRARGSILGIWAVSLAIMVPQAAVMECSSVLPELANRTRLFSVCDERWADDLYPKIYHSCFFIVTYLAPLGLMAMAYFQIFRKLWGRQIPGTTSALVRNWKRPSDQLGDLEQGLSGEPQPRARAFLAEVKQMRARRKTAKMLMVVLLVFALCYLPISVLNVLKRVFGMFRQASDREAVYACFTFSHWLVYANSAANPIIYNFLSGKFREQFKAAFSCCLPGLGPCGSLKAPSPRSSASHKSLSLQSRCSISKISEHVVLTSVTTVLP
Assay: Concentration-response reporter assay kit (Cayman n. 600240/600250) on HEK-293T cells, OR1
Format: cell-based
Design: host or cells: HEK-293T
Settings: HEK-293T cells, reporter assay, Hill equation fit
Bridge positions count the residues as written; N and C are the ends. Ends that are not written are not given here.

- substance: "YGRKKRRQRRRPDCCRQKTCSCRLYELLHGAGNHAAGILTL-NH2 (disulfide 14-20, 15-22) [OX-DRAGON]"
  experimental target: "OR1 (Homo sapiens)"
  EC50: "67.7 nM"

====

Experiment: Solubility of the peptide
Type: physicochemical
Conditions: in DPBS
Bridge positions count the residues as written; N and C are the ends. Ends that are not written are not given here.
measure name: solubility (µg/mL)

- substance: "YGRKKRRQRRRPDCCRQKTCSCRLYELLHGAGNHAAGILTL-NH2 (disulfide 14-20, 15-22) [OX-DRAGON]"
  measure name: "solubility"
  recorded value: 10000

====

Experiment: Solubility of the peptide
Format: physicochemical
Conditions: in water
Bridge positions count the residues as written; N and C are the ends. Ends that are not written are not given here.

- substance: "YGRKKRRQRRRPDCCRQKTCSCRLYELLHGAGNHAAGILTL-NH2 (disulfide 14-20, 15-22) [OX-DRAGON]"
  unit of measurement: "mg/mL"
  solubility: 10

====

Target: OR2 (Homo sapiens)
Sequence (O43614 whole entry): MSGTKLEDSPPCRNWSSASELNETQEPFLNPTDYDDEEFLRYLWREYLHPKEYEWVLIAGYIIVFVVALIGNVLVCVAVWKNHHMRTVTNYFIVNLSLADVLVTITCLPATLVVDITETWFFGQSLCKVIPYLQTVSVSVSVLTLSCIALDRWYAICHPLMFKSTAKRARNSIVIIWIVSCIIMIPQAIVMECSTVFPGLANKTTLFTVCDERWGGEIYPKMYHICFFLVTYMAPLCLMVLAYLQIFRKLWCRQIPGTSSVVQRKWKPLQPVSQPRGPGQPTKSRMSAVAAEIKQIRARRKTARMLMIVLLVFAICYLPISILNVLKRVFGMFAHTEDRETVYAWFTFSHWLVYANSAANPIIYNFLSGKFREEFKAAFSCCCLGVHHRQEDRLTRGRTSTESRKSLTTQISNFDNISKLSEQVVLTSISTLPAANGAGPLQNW
Experiment: cell-based
Bridge positions count the residues as written; N and C are the ends. Ends that are not written are not given here.
measure name: EC50 (nM)

- substance: "YGRKKRRQRRRPDCCRQKTCSCRLYELLHGAGNHAAGILTL-NH2 (disulfide 14-20, 15-22) [OX-DRAGON]"
  recorded value: 10.5
